# Protocol Notes: Compound was tested for its inhibitory activity against Noradrenaline receptor
# Design: species or system Rattus norvegicus
Value Type: pIC50
A value of pIC50 is the negative decimal logarithm of a concentration given in moles per litre.

# annotated cases, reported pIC50 shown
{"columns": ["Compound", "pIC50"],
 "data": [
  ["CNCCCN1c2ccccc2CCc2ccccc21 [DESIPRAMINE]", 8.70],
  ["CNCCC=C1c2ccccc2CCc2ccccc21 [NORTRIPTYLINE]", 8.05],
  ["CN(C)CC/C=C1/c2ccccc2COc2ccccc21 [DOXEPIN]", 7.19],
  ["CN(C)CCCN1c2ccccc2CCc2ccccc21 [IMIPRAMINE]", 7.34]
]}

Measured pIC50 of CN(C)CCC=C1c2ccccc2CCc2ccccc21 [AMITRIPTYLINE] : 7.39

Measured pIC50 of CN(C)CCCN1c2ccccc2CCc2ccc(Cl)cc21 [CLOMIPRAMINE] : 7.34

###

Reported pKi values for a set of compounds
# Protocol Notes: Compound was tested for its binding affinity towards brain (neocortex) Adenylate cyclase
# Parameters: species or system Cavia porcellus
A value of pKi is the negative decimal logarithm of a concentration given in moles per litre.

# annotated cases, reported pKi shown
{"columns": ["Compound", "pKi"],
 "data": [
  ["CN(C)CCCN1c2ccccc2CCc2ccc(Cl)cc21", 7.37],
  ["CN(C)CC/C=C1/c2ccccc2COc2ccccc21 [DOXEPIN]", 6.72],
  ["CN1CCN2c3ccccc3Cc3ccccc3C2C1 (configuration not stated)", 7.15],
  ["CNCCCN1c2ccccc2CCc2ccccc21", 6.49]
]}

Measured pKi of `CNCCC=C1c2ccccc2CCc2ccccc21` : 6.55

Measured pKi of `CN(C)CCC=C1c2ccccc2CCc2ccccc21` : 7.22

Measured pKi of `CN(C)CCCN1c2ccccc2CCc2ccccc21` : 6.80

###

# Protocol Notes: Protonation constant of the compound.
# Format: ADME
Give rule met when the value for pKa is at least 9. Give rule not met when it is less.

# count of solved cases: 5
{"columns": ["Molecule", "Group"],
 "data": [
  ["CNCCC=C1c2ccccc2CCc2ccccc21", "rule met"],
  ["CN1CCN(C2=Nc3ccccc3Oc3ccc(Cl)cc32)CC1", "rule not met"],
  ["Clc1ccc2c(c1)C(N1CCNCC1)=Nc1ccccc1O2", "rule not met"],
  ["CN(C)CCC=C1c2ccccc2CCc2ccccc21", "rule met"],
  ["CN1CCN2c3ccccc3Cc3ccccc3C2C1 (stereo not given)", "rule not met"]
]}

For this molecule, is measured pKa 9 or higher? `CN(C)CCCN1c2ccccc2CCc2ccc(Cl)cc21`
rule met

For this molecule, is measured pKa 9 or higher? `CNCCCC12CCC(c3ccccc31)c1ccccc12`
rule met

For this molecule, is measured pKa 9 or higher? `CN(C)CCC=C1c2ccccc2C(C)(C)c2ccccc21`
rule not met

###

# Assayed System: Histamine H2 receptor (Cavia porcellus, UniProt P47747)
# Sequence (P47747 whole entry): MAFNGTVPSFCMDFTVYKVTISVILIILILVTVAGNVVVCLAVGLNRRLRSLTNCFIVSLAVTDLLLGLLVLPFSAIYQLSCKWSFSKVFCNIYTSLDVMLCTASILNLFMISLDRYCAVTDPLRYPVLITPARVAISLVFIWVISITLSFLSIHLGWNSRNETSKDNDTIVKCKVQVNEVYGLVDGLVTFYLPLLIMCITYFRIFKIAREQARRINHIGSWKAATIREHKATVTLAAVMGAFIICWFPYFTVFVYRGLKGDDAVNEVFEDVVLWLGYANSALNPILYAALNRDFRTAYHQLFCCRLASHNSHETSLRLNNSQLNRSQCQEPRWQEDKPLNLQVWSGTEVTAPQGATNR
# Protocol Notes: Inhibitory activity against brain adenylate cyclase Histamine H2 receptor
Value Type: pIC50
A value of pIC50 is the negative decimal logarithm of a concentration given in moles per litre.

{"columns": ["Compound", "Assayed System", "Assay Result"],
 "data": [
  ["CN(C)CCC=C1c2ccccc2CCc2ccccc21", "Histamine H2 receptor (Cavia porcellus, UniProt P47747)", 6.18],
  ["CNCCCN1c2ccccc2CCc2ccccc21", "Histamine H2 receptor (Cavia porcellus, UniProt P47747)", 5.42],
  ["CN1CCN2c3ccccc3Cc3ccccc3C2C1 (configuration not stated)", "Histamine H2 receptor (Cavia porcellus, UniProt P47747)", 6.06]
]}

Measured pIC50 of CN(C)CC/C=C1/c2ccccc2COc2ccccc21 [DOXEPIN] : 5.80

Measured pIC50 of `CNCCC=C1c2ccccc2CCc2ccccc21` : 5.15

Measured pIC50 of `CN(C)CCCN1c2ccccc2CCc2ccccc21` : 5.72

Measured pIC50 of `CN(C)CCCN1c2ccccc2CCc2ccc(Cl)cc21` : 6.14

###

Reported pIC50 values for a set of compounds
# Assayed System: Histamine H1 receptor (Rattus norvegicus)
# Sequence (P31390 whole entry): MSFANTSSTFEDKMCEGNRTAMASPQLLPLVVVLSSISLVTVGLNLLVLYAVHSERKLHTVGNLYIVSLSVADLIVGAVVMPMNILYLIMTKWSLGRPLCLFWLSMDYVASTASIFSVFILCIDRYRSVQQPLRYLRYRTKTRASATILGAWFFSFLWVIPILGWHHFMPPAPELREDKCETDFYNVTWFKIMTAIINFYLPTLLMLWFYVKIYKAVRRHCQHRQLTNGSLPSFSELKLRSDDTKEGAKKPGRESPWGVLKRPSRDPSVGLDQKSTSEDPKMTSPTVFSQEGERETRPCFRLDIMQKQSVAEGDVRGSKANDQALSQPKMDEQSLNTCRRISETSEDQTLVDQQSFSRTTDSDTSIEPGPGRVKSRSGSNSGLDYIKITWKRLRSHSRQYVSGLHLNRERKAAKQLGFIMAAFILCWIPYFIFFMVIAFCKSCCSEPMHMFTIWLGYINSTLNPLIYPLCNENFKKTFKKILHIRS
A value of pIC50 is the negative decimal logarithm of a concentration given in moles per litre.

{"columns": ["Compound String", "Assay Result"],
 "data": [
  ["CN(C)CCC=C1c2ccccc2CCc2ccccc21", 7.70]
]}

Continue with the next compound.
Histamine H1 receptor (Rattus norvegicus) data for `CNCCC=C1c2ccccc2CCc2ccccc21` ; its pIC50: 7.30

###

# Protocol Notes: in vivo
# Measurement Setup: plasma
# Description: Plasma clearance for the compound was determined.
Value Type: clearance (mL/min)
Give just the numeric value; mL/min need not be written.

# annotated cases, reported clearance shown
{"columns": ["Molecule", "Assay Result"],
 "data": [
  ["CN(C)CC/C=C1/c2ccccc2COc2ccccc21 [DOXEPIN]", 850],
  ["CNCCC=C1c2ccccc2CCc2ccccc21", 1320],
  ["CN(C)CCCN1c2ccccc2CCc2ccc(Cl)cc21", 1210]
]}

Measured clearance of `CN(C)CCC=C1c2ccccc2CCc2ccccc21` : 1200

###

Reported Log K values for a set of compounds
# Protocol Notes: log k (capacity factor) was measured by micellar liquid chromatography in Brij35 medium
# Measurement Setup: 0.04 M Brij35
No unit in the answer, please; the number alone is enough.

# annotated cases, reported Log K shown
{"columns": ["Compound", "Assay Result"],
 "data": [
  ["O=C(O)CCCCCCNC1c2ccccc2CCc2ccccc21", 1.09],
  ["c1ccc2c(c1)CCc1ccccc1N2C1CN2CCC1CC2 (stereo not given)", 1.62],
  ["Clc1ccc2c(c1)C(N1CCNCC1)=Nc1ccccc1O2", 1.63],
  ["CN(C)CC/C=C1/c2ccccc2COc2ccccc21 [DOXEPIN]", 1.69],
  ["CNCCCC12CCC(c3ccccc31)c1ccccc12", 1.47]
]}

Measured Log K of `CN(C)CCCN1c2ccccc2CCc2ccc(Cl)cc21` : 1.89

Measured Log K of `CN(C)CCC=C1c2ccccc2CCc2ccccc21` : 1.84

Measured Log K of `CN(C)CCC=C1c2ccccc2C(C)(C)c2ccccc21` : 1.97

Measured Log K of `CNCCCN1c2ccccc2CCc2ccccc21` : 1.46

Measured Log K of CN1CCN2c3ccccc3Cc3ccccc3C2C1 (stereo not given) : 1.87

Measured Log K of CN(C)CCC=C1c2ccccc2CSc2ccccc21 [DOTHIEPIN] : 1.74

Measured Log K of `CN(C)CCCN1c2ccccc2CCc2ccccc21` : 1.8

Measured Log K of `CN1CCN(C2=Nc3ccccc3Oc3ccc(Cl)cc32)CC1` : 1.86

Measured Log K of CC(CN(C)C)CN1c2ccccc2CCc2ccccc21 (stereo not given) : 1.86

Measured Log K of `CNCCC=C1c2ccccc2CCc2ccccc21` : 1.52

###

# Protocol Notes: physchem
# Measurement Setup: buffer, pH 7.4
# Description: log P values determined at pH 7.4
Value Type: logD
No unit in the answer, please; the number alone is enough.

# annotated cases, reported logD shown
{"columns": ["Compound", "Assay Result"],
 "data": [
  ["CN(C)CCC=C1c2ccccc2C(C)(C)c2ccccc21", 4.83],
  ["CN(C)CCC=C1c2ccccc2CSc2ccccc21 [DOTHIEPIN]", 2.66],
  ["CN(C)CCC=C1c2ccccc2CCc2ccccc21", 2.62],
  ["CN(C)CC/C=C1/c2ccccc2COc2ccccc21 [DOXEPIN]", 2.27]
]}

Measured logD of c1ccc2c(c1)CCc1ccccc1N2C1CN2CCC1CC2 (stereo unspecified) : 1.36

Measured logD of `CNCCCC12CCC(c3ccccc31)c1ccccc12` : 1.12

###

# Protocol Notes: Therapeutic plasma levels for the compound was evaluated.
# Format: ADME, cell-free
Value Type: T.P.L (ng/mL)
Give just the numeric value; ng/mL need not be written.

# annotated cases, reported T.P.L shown
{"columns": ["Compound", "Endpoint Unit", "Assay Result"],
 "data": [
  ["CN(C)CCC=C1c2ccccc2CCc2ccccc21 [AMITRIPTYLINE]", "ng/mL", 180],
  ["CN(C)CCCN1c2ccccc2CCc2ccc(Cl)cc21 [CLOMIPRAMINE]", "ng/mL", 90],
  ["CN(C)CCCN1c2ccccc2CCc2ccccc21 [IMIPRAMINE]", "ng/mL", 275]
]}

Continue with the next compound.
Measured T.P.L of CNCCCN1c2ccccc2CCc2ccccc21 [DESIPRAMINE] : 212.5

###

Reported Vd values for a set of compounds
# Protocol Notes: Volume of distribution in the plasma fluid was determined
# Format: ADME, organism-based
A complete answer gives the number followed by the unit.

# annotated cases, reported Vd shown
{"columns": ["Compound", "Value Type", "Assay Result"],
 "data": [
  ["CN(C)CCC=C1c2ccccc2CCc2ccccc21", "Vd", "15 L/kg"],
  ["CNCCCN1c2ccccc2CCc2ccccc21", "Vd", "22 L/kg"],
  ["CN1CCN2c3ccccc3Cc3ccccc3C2C1 (stereo unspecified)", "Vd", "16 L/kg"],
  ["CN(C)CCCN1c2ccccc2CCc2ccccc21", "Vd", "30 L/kg"],
  ["CNCCC=C1c2ccccc2CCc2ccccc21", "Vd", "35 L/kg"]
]}

Measured Vd of `CN(C)CCCN1c2ccccc2CCc2ccc(Cl)cc21` : 13.5 L/kg
